Test: label from the status in PepcDB records
PROPERTY_LABEL: protein production

Look over these answered cases.
Form: sequence = `MSNLPFHQFCGTEGYVASRALQDVVNVAIALERPLLLKGEPGTGKTLLAYHIAKALGMEIILWNVKSTTKARDGLYTYDTVQRLNDARFGDGDVRDIRHYIKLGPLGRAFGSAERVVLLIDEVDKADIEFPNDLLFELDEMRFHVLETDEWVSAAHRPVVIVTSNSEKELPDAFLRRCVFHYIDFPDETQMRAIIDVHFPDLPAELMRSACKVFYGLREVPGLRKRPSTSELLDWIRVLLASGARLPEEETPALQSVPFLGALVKIQEDADILAHHASRSADVRTAGRRFFRLEHHHHHH` ; protein production = failed

Form: sequence = `MGVANLRVMHYVHKDKAFAYWSCTCVYAPESRYCSEEHKKMALAEREYELPHNFANVHLHTNMEDLVLPKIISYLRDPQLGIIEIPNLQYIDDVFNVTPTEQPDMFSTNLDEREEFNIWLFMMIS` ; protein production = failed

Form: sequence = `MLERILEPEVMDTEAEAMDYDAMDFQAVNLAFAQRACQLGPSKATVLDAGTGTARIPILLAQLRPAWQITAIDFARSMLAIAKENVIAAGCETQICLEFVDAKQLPYANGSFDGVIANSLCHHLPRPLDFLREVKRVLKPHGFLLIRDLIRPESPEKLADFVTAIGSDYNDQQRKLFADSLHASLTIAEIQDYLQHLGWVGDDGPNLELHLYQSSDRHWTLEKKFQSSTIVQR` ; protein production = failed

Form: sequence = `MFRRLILRQAAAVAAESKIACHHTVHGFEQRRGLHSRNEKAMEYVAKGWSAIKEVERVIDYCELNDRRLIPLLRGAKENFELALEADNLNTHARYWLSKLHLKYHVPGACKAVGAALLVEAADMGNADAQYELGCRLRVENDHVQSDQQAFHYIENAVDQLHPGALYLLGIVYLTGDCVKQDVDSAIWCFHRASEKGHAGAAIAYGSLLLRGVQVPESLTKLNVVGVSPPKRARKNLENPEMNPLEMAKEQFQIAARAGCDLGLKWLQRVEQEEKLLMREQDNECAYV` ; protein production = failed

Others:
Form: sequence = `MFIKVKLPWDVTIPAEDMDTGLMLQRAIVIRLLEAFSKEKATKDLGYLITPTILENIGEGKIKEQTGEIQFPVVFNGICFKMFKGEIVHGVVHKVHKTGVFLKSGPYEIIYLSHMKMPGYEFIPGENPFFMNQYMSRIQIGARVRFVVLDTEWREAEKDFMALASIDGDNLGPF` ; protein production = failed

Form: sequence = `EKEFYLDSSSEALEEKAITHTSKKPDTPEEITISLNGHLFTGNTEQPLLMQVEEAGLSINNSCRAGLCGACRVTLESGEVEQEDSPALNQKLKEAGMILACCSVPKTDVEIVD` ; protein production = failed

Form: sequence = `MGDEALVVDPLRFIDVYEQVAQQEGVTITHIVDSHLHADHLSGGKALAERTGAAYYLMKSEGAVFDFEPLEQHETIDFENVHLEVLAVKTPGHTPGSVSFFVNGKWLFSGDTIFVGGLGRPDLGGKVAEWAEDLYHTVYEKVAAMADDVIVLPAHYANLDEEINAEGYVGDTLGRIRARNEMMQNKAKDEFIDLVIQGLEHHHHHH` ; protein production = failed

Form: sequence = `MWSYDKITDYLMNNLGEKRYKHSLGVMDTAVRLAGIYNEDTEKARIAGLVHDCAKKLPGEKIIEICTNEGYELGDEDIRNSYLLHGLAGRILAKKVIGIDDEDVLNAIEFHTTGRPNMSLLEKIIYIADYIEPGREFKGVDELRKAADEDLNKALLMSFDNTIKFVIDKGGFLHHNTIEARNYLISRKG` ; protein production = not failed

Form: sequence = `MSRSTRSDQNARIRQRLGQPESGWRQRWYTIIFEADTRPGRTFDIVLLVAIIASVAVVMLDSIQAIHARLGTVFTALEWLFTLLFTTEYIMRLSVVRRPLRYVFSFYGIIDFLSIIPTWASFFVPELAFLIDVRLLRLLRVFRILKLTVYFEEAEILMLALSNSRRKIFVFLGTVFIITVILGTIMYVVEGPTHGFTSIPVSMYWAIVTLTTTGFGDMVPKTPIGQFITSITILLGYGIIAFPTGIVGAELAASIIRRPLTTRSCEHCLTEGHEPDATFCKHCGTALPEYRTELATDRRGDDGSRSR` ; protein production = failed

Form: sequence = `MNNTIPRWRGFNLLEAFSIKSTGNFKEEDFLWMAQWDFNFVRIPMCHLLWSDRGNPFIIREDFFEKIDRVIFWGEKYGIHICISLHRAPGYSVNKEVEEKTNLWKDETAQEAFIHHWSFIARRYKGISSTHLSFNLINEPPFPDPQIMSVEDHNSLIKRTITEIRKIDPERLIIIDGLGYGNIPVDDLTIENTVQSCRGYIPFSVTHYKAEWVDSKDFPVPEWPNGWHFGEYWNREKLLEHYLTWIKLRQKGIEVFCGEMGAYNKTPHDVVLKWLEDLLEIFKTLNIGFALWNFRGPFGILDSERKDVEYEEWYGHKLDRKMLELLRKY` ; protein production = not failed

Form: sequence = `MSLKYKLIVLDLDGTLTNSKKEISSRNRETLIRIQEQGIRLVLASGRPTYGIVPLANELRMNEFGGFILSYNGGEIINWESKEMMYENVLPNEVVPVLYECARTNHLSILTYDGAEIVTENSLDPYVQKEAFLNKMAIRETNDFLTDITLPVAKCLIVGDAGKLIPVESELCIRLQGKINVFRSEPYFLELVPQGIDKALSLSVLLENIGMTREEVIAIGDGYNDLSMIKFAGMGVAMGNAQEPVKKAADYITLTNDEDGVAEAIERIFNVEGHHHHHH` ; protein production = not failed

Form: sequence = `MSLVNSLTHYEILRIPSDATQDEIKKAYRNRLLNTHPDKLSKSIHDTVSNVTINKIQDAYKILSNIKTRREYDRLILENYK` ; protein production = not failed

Form: sequence = `MINFEATELRLGLPGGNHGGEMAGKNNGKRGFSETVDLKLNLSSTAMDSVSKVDLENMKEKVVKPPAKAQVVGWPPVRSFRKNVMSGQKPTTGDATEGNDKTSGSSGATSSASACATVAYVKVSMDGAPYLRKIDLKLYKTYQDLSNALSKMFSSFTIGNYGPQGMKDFMNESKLIDLLNGSDYVPTYEDKDGDWMLVGDVPWEMFVDSCKRIRIMKGSEAIGLAPRALEKCKNRS` ; protein production = failed
